Molecular target: Cdk9/cyclinT1 (Homo sapiens (Human))
Test: Cdk9/CyclinT1 IMAP Protocol (fluorescence polarization kinase assay)
Type: biochemical
Details: Table 2; generated using one of the two Cdk9/cyclinT1 assays (IMAP or Alpha Screen), not specified which; unit inferred
pIC50: −log10 of the molar value.
Below, each of the molecules is paired with its reported pIC50 value.

- molecule: "[2H]C([2H])(Nc1cccc(-c2cc(N[C@H]3CC[C@H](NC[C@@H]4CCCO4)CC3)ncc2Cl)n1)C1CCOCC1"
  pIC50: 7.00
- molecule: "COC[C@@H](C)N[C@H]1CC[C@H](Nc2cc(-c3nc(NCC4CCCCO4)ccc3Cl)c(Cl)cn2)CC1 (stereo in doubt) [Compound 321]"
  pIC50: 7.96
- molecule: "Clc1cnc(N[C@H]2CC[C@H](NC3CCOC3)CC2)cc1-c1nc(NCC2CCOCC2)ccc1Cl (mixture of isomers)"
  pIC50: 7.79
- molecule: "OCCN[C@H]1CC[C@H](Nc2cc(-c3nc(NCC4CCOCC4)ccc3Cl)c(Cl)cn2)CC1"
  pIC50: 8.10
- molecule: "N[C@H]1CC[C@H](Nc2cc(-c3cccc(NCc4ccccc4)n3)c(Cl)cn2)CC1"
  pIC50: 8.09
- molecule: "Clc1cnc(N[C@H]2CCCNC2)cc1-c1cccc(NCC2CCOCC2)n1"
  pIC50: 5.89
- molecule: "CCS(=O)(=O)N1CCC(Nc2cc(-c3cccc(NCc4cccc(F)c4)n3)c(Cl)cn2)CC1"
  pIC50: 6.87
- molecule: "COC[C@@H](C)N[C@H]1CC[C@H](Nc2cc(-c3ccc(C(F)(F)F)c(NCC4CCOCC4)n3)c(Cl)cn2)CC1"
  pIC50: 9.00
- molecule: "CN(C)CCCCNc1cc(-c2cccc(NCc3cccc(F)c3)n2)c(Cl)cn1"
  pIC50: 7.59
- molecule: "N[C@H]1CC[C@H](Nc2cc(-c3nc(NCC4CCOCC4)ccc3Cl)c(F)cn2)CC1"
  pIC50: 8.10
- molecule: "Fc1cccc(CNc2cccc(-c3cc(NC4CCC(F)(F)CC4)ncc3Cl)n2)c1"
  pIC50: 6.29
- molecule: "N[C@H]1CC[C@H](Nc2cc(-c3cccc(NCc4cncc(F)c4)n3)c(Cl)cn2)CC1"
  pIC50: 8.10
- molecule: "Fc1cccc(CNc2cccc(-c3cc(NCC4CCOCC4)ncc3Cl)n2)c1"
  pIC50: 7.64
- molecule: "O[C@@H](CN[C@H]1CC[C@H](Nc2cc(-c3nc(NCC4CCOCC4)ccc3Cl)c(Cl)cn2)CC1)C(F)(F)F"
  pIC50: 8.70
- molecule: "FC(F)(F)OCCN[C@H]1CC[C@H](Nc2cc(-c3cccc(NCC4CCOCC4)n3)c(Cl)cn2)CC1"
  pIC50: 8.52

* * *

Biological target: Cdk9/cyclinT1 (Homo sapiens (Human), UniProt P50750)
Sequence (P50750 whole entry): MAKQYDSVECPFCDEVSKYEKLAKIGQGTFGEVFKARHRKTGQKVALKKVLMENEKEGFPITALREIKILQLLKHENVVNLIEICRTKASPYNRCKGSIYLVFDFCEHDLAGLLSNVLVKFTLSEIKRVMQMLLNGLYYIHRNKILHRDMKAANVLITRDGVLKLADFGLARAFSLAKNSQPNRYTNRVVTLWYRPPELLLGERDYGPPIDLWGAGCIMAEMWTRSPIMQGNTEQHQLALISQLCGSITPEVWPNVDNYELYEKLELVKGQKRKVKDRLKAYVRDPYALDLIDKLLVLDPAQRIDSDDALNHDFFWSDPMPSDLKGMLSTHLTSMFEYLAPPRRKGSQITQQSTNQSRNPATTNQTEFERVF
Sequence (O60563 whole entry partner): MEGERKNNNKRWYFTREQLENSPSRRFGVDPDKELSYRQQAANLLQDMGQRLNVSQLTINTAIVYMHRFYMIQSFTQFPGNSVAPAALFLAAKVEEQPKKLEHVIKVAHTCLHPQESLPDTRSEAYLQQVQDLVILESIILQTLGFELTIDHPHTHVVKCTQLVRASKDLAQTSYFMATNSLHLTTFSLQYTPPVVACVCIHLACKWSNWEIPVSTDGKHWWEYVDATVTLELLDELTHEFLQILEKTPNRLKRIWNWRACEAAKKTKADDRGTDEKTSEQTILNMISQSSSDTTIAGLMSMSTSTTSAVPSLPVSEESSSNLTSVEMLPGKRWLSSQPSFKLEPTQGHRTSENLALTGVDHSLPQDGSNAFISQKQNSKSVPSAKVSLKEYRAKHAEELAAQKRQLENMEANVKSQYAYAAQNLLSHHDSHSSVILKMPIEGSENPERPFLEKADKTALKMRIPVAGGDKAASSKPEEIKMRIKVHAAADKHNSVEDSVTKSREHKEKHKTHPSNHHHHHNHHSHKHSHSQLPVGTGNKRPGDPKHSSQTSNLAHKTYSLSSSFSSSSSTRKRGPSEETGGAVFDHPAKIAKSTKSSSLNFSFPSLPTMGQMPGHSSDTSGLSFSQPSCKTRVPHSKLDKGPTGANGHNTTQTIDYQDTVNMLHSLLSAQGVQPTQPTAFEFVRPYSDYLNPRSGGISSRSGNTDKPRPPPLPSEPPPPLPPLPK
Experiment: Cdk9/CyclinT1 IMAP Protocol (fluorescence polarization kinase assay)
Details: Table 2; generated using one of the two Cdk9/cyclinT1 assays (IMAP or Alpha Screen), not specified which; unit inferred
pIC50: −log10 of the molar value.
Classify on pIC50 using low bracket = under 7, middle bracket = from 7 up to 8, high bracket = 8 and over

- compound: "Fc1cccc(CNc2cccc(-c3cc(N[C@@H]4CCCNC4)ncc3Cl)n2)c1"
  classification: "low bracket"
- compound: "COC[C@@H](C)N[C@H]1CC[C@H](Nc2cc(-c3nc(NCC4CCOCC4)ccc3C(F)(F)F)c(Cl)cn2)CC1"
  classification: "middle bracket"
- compound: "CC(=O)NC[C@H]1CC[C@H](Nc2cc(-c3cncc(NCC4CCOCC4)n3)c(Cl)cn2)CC1"
  classification: "middle bracket"
- compound: "COCCN[C@H]1CC[C@H](Nc2cc(-c3nc(NCC4CCOCC4)ccc3Br)c(Cl)cn2)CC1"
  classification: "high bracket"
- compound: "NCCNc1cc(-c2cccc(NCc3cccc(F)c3)n2)c(Cl)cn1"
  classification: "low bracket"
- compound: "O=S1(=O)CCC(CN[C@H]2CC[C@H](Nc3cc(-c4ccc(F)c(NCC5CCOCC5)n4)c(Cl)cn3)CC2)CC1"
  classification: "high bracket"
- compound: "Nc1ncc(-c2cc(N[C@H]3CC[C@H](O)CC3)ncc2Cl)nc1NCC1CCOCC1"
  classification: "middle bracket"
- compound: "O[C@H]1CC[C@H](Nc2cc(-c3cccc(NC4CCOCC4)n3)c(Cl)cn2)CC1"
  classification: "low bracket"
- compound: "CC(=O)N1CCC[C@@H](CNc2cccc(-c3cc(N[C@H]4CC[C@H](N)CC4)ncc3Cl)n2)C1"
  classification: "middle bracket"
- compound: "CC1(CNc2nc(-c3cc(N[C@H]4CC[C@H](N)CC4)ncc3Cl)ccc2F)CCOCC1"
  classification: "high bracket"
- compound: "Fc1ccc(CNc2cccc(-c3cc(N[C@@H]4CCCNC4)ncc3Cl)n2)cc1F"
  classification: "low bracket"
- compound: "NC(=O)c1ccc(-c2cc(N[C@H]3CC[C@H](N)CC3)ncc2Cl)nc1NCc1cccc(F)c1 [Compound 14]"
  classification: "low bracket"
- compound: "Fc1cccc(CNc2cccc(-c3cc(NC[C@@H]4CCCNC4)ncc3Cl)n2)c1"
  classification: "middle bracket"
- compound: "CS(=O)(=O)N[C@H]1CC[C@H](Nc2cc(-c3cncc(NCC4CCOCC4)n3)c(Cl)cn2)CC1"
  classification: "middle bracket"
- compound: "Clc1cnc(N[C@@H]2CCCNC2)cc1-c1cccc(NCC2CCOCC2)n1"
  classification: "low bracket"
- compound: "COC[C@@H](C)N[C@H]1CC[C@H](Nc2cc(-c3ccc(F)c(NCC4(C#N)CCOCC4)n3)c(Cl)cn2)CC1"
  classification: "high bracket"
